test: Single intravenous dose PK; format: in vivo, CD-1 mouse; conditions: CD-1, mouse, plasma; IV 100 mg/kg, female; read-out: Vss
parameter: Vd

1. OC[C@@H](O)[C@@H](O)[C@@H](O)CO :: 2.67 L/kg

* * *

test: Single oral dose PK; format: in vivo, CD-1 mouse; details: both sexes, CD-1, mouse, plasma, po; read-out: Tmax after oral administration
parameter: Tmax

1. OC[C@@H](O)[C@@H](O)[C@@H](O)CO :: < 2 h

* * *

assay: PK comparison QD, BID, TID oral dosing; type: in vivo; conditions: female, CD-1, mouse, plasma, po, 0.3 g/kg, PO 0.3 g/kg/dose BID, last dose
parameter: half-life (min)

1. OC[C@@H](O)[C@@H](O)[C@@H](O)CO :: 59
